Numbers sourced from ChEMBL document CHEMBL3988442.

molecular target: Sialic acid-binding Ig-like lectin 9 (Homo sapiens) (UniProt Q9Y336); experiment: Hs-Siglec9 ALPHAscreen SOP 20170721; parameters: scale not given: direction of the effect not stated beside the values; conditions: 10 µM
Sequence (Q9Y336 whole entry): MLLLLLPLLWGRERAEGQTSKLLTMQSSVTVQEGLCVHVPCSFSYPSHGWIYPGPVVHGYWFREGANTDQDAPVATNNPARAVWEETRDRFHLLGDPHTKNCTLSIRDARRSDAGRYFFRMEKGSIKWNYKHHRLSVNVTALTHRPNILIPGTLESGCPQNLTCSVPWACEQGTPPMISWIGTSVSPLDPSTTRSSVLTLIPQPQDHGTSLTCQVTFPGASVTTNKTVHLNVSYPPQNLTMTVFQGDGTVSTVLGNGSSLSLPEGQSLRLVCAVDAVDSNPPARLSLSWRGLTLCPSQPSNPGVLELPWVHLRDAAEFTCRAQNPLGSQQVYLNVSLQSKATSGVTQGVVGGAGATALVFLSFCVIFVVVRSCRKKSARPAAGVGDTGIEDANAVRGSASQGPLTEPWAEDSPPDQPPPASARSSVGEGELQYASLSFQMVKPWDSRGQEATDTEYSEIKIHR
Hi there, I'd appreciate the recorded Percent Effect for every entry that follows.
Express the result in % but write the number alone.

Query :: Could you tell me which Percent Effect is on file for CCN(CC1CCOC1)C(=O)Nc1ccc(-n2cncn2)nc1 (configuration not stated) ?
Result :: -0.956

Query :: // Percent Effect lookup, key: COCCN1CCN(Cc2cccc(C(N)=O)c2)CC1C (configuration not stated)
Result :: -8.56

Query :: Could you share which Percent Effect value was measured for CCc1nc(C2CCCN2C(=O)c2cc(C3CC3)[nH]n2)no1 (configuration not stated) ?
Result :: -4.76

Query :: Would you mind telling me what Percent Effect value was observed for Cc1n[nH]c(C2CN(CC(=O)NCCc3ccsc3)CCO2)n1 (configuration not stated) ?
Result :: 0.305

Query :: Recorded Percent Effect of Cc1cccc(C2(NC(=O)CCN3C(=O)CCC3=O)CCCC2)c1 , please.
Result :: 8.26

Query :: GET /values?readout=Percent Effect&item= CC(NC(=O)N1CCN(c2ccc(Cl)cc2)CC1)C(=O)N1CCSCC1 (configuration not stated)
Result :: 0.915

Query :: What measured Percent Effect goes with CCN(CC1CCCO1)C(=O)Nc1cc(OC)c(OC)cc1C (configuration not stated) ?
Result :: 12.7

Query :: Record request: Percent Effect value, item CCCc1n[nH]c(C2CN(C(=O)CCCn3cccn3)CCO2)n1 (configuration not stated)
Result :: -2.33

Query :: Entry CCOc1cccc(C(C)NC(=O)N2CCC(C(N)=O)CC2)c1 (configuration not stated) : reported Percent Effect = ?
Result :: 5.06

Query :: Look up Percent Effect for this molecule: c1ncn(CC2CN(Cc3noc(C4CC4)n3)CCO2)n1 (configuration not stated)
Result :: 2.48

Query :: Tell me the measured Percent Effect of COCCOc1ncccc1CNCc1c(C)nn(C)c1N(C)C , please.
Result :: -0.788

Query :: Look up Percent Effect for this molecule: Clc1snnc1CN1CCOC(CNc2cccnn2)C1 (configuration not stated)
Result :: 8.04

---

Provide the recorded Percent Effect for the entries that follow.
biological target: Arginase-2, mitochondrial (Homo sapiens) (UniProt P78540); test: in vitro enzyme assay to detect the production of urea directly proportional to the activity of Arginase II; format: functional; design: scale not given: in the data most compounds retested in dose-response had high values; conditions: 33.3 µM
Sequence (P78540 whole entry): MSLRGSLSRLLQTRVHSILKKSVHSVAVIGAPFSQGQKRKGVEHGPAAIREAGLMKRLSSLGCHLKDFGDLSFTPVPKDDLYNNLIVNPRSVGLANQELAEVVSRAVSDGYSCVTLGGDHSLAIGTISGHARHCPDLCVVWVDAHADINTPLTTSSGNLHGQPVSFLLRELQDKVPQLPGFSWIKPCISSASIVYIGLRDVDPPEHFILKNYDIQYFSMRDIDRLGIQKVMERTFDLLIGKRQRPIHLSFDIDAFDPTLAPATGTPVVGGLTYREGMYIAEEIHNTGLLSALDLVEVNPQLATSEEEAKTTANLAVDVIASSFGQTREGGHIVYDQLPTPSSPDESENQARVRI
All answers are understood in %, so give the number only.

Query :: Param item = CCCOCCCNc1nccc(-c2cn(C)nc2C)n1 ; retrieve measured Percent Effect.
Result :: -3.85

Query :: Suppose we examine the molecule Cc1csc([C@@H]2C[C@@H]3CCN(C(=O)c4cc(C)on4)C[C@H]3O2)n1 ; what Percent Effect value has been reported?
Result :: 5.81

Query :: Quick check: Percent Effect of COc1ccc(C)cc1CN1CCCC1c1noc(C2CC2)n1 (configuration not stated) ?
Result :: -9.8

Query :: Which Percent Effect is reported for this molecule? CN1CCC(Cc2cc(Nc3ncccn3)ncn2)CC1
Result :: -1.16

Query :: What Percent Effect value was documented for this molecule, CN(Cc1ccc(F)cc1)[C@@H]1CN(C(=O)c2cccs2)C[C@H]1O ?
Result :: -3.1

Query :: What does the data say about its Percent Effect? Entry: Cc1nc(C2CCCN2C(=O)c2cnns2)no1 (configuration not stated)
Result :: 9.96

Query :: Entry CNCC(=O)N1CCCC(c2cccc(Nc3nc(C)cc(C)n3)n2)C1 (configuration not stated) has what Percent Effect?
Result :: -5.34

Query :: What value of measured Percent Effect is listed for COC(=O)Cn1c(=O)nc2n1C(=O)N(c1ccccc1)C2 ?
Result :: 5.94

Query :: Using the record for COc1cn(-c2ccccc2)nc1C(=O)NCCCN1CCCC(C)C1 (configuration not stated) , report its Percent Effect.
Result :: 0.356

Query :: // lookup Percent Effect for COCCN(C)C[C@@H]1CN(C(=O)c2ccoc2)C[C@@H]1CO
Result :: -1.43

Query :: Look at this molecule and give its reported Percent Effect. CN(C)c1cc(C(=O)N2CCN(c3cnccn3)CC2)ccn1
Result :: 2.46

Query :: Fill in: Percent Effect of O=C(Nc1ccc(CCN2CCC(O)CC2)cc1)Nc1cccnc1 is ___
Result :: -1.91
